biological target: β-secretase (BACE) (Homo sapiens); construct: purchased Panvera; test: In Vitro BACE FS1 % Inhibition Assay (Example 10); type: biochemical; settings: 0.3 μM compound; FS1 substrate; values below about 25% (including negative) within noise
Property: % Inhibition (Example 10) @ 0.3 μM; scope: individual compounds

compound: Nc1nc2ccc(Oc3ccccc3)cc2cc1CCNC(=O)C1CCCCC1 [compound 4]
target.or.system: β-secretase (BACE) (Homo sapiens)
result.unit: %
% Inhibition (Example 10) @ 0.3 μM: 14
--
compound: COC(=O)[C@H]1CC[C@H](NC(=O)CCC(c2cc3cc(Oc4ccccc4)ccc3nc2N)C2CCCCC2)CC1 (stereo partly shown) [compound 20]
target.or.system: β-secretase (BACE) (Homo sapiens)
result.unit: %
% Inhibition (Example 10) @ 0.3 μM: −8
--
compound: Nc1nc2ccc(Oc3ccccc3)cc2cc1CCC(=O)N[C@H](CO)CC1CCCCC1 [compound 14]
target.or.system: β-secretase (BACE) (Homo sapiens)
result.unit: %
% Inhibition (Example 10) @ 0.3 μM: −14
--
compound: Nc1nc2ccc(Oc3ccccc3)cc2cc1CCCC(=O)NC12CC3CC(CC(C3)C1)C2 [compound 17]
target.or.system: β-secretase (BACE) (Homo sapiens)
result.unit: %
% Inhibition (Example 10) @ 0.3 μM: 19

----------
biological target: β-secretase (BACE) (Homo sapiens, UniProt P56817); construct: purchased Panvera; test: In Vitro BACE % Inhibition Assay, (Aedens)-[…]-(Dabcyl K-amide) substrate (Example 12); assay type: biochemical
pKi: −log10 of the molar value.

molecule: CN(C(=O)CCC1Cc2cc(Oc3ccccc3)ccc2N=C1N)C1CCCCC1 (stereo not shown)
pKi: 6.55

----------
Target: human BACE-1 (Homo sapiens, UniProt P56817)
Construct: purchased CEREP (contract assay) 761-B
Sequence (P56817 46-501): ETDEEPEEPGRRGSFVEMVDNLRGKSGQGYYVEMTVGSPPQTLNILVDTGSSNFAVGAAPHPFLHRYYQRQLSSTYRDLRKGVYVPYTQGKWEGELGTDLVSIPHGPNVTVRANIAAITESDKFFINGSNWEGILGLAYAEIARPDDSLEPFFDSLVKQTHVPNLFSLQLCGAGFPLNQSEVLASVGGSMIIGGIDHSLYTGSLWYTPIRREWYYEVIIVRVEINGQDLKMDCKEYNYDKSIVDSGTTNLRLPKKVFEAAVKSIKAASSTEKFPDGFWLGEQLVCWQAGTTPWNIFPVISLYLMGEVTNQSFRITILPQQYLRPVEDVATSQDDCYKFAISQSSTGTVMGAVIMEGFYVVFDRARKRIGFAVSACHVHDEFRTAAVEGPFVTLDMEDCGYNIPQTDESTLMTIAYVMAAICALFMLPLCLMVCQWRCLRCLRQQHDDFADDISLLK
Experiment: In Vitro BACE Assay run by CEREP (Example 14)
Type: biochemical
Settings: 1 μM compound; recombinant enzyme, 60 min at 37° C., pH 4.5
From the text: This assay was run by CEREP (Catalog Ref. 761-B, Referred to SOP No. 1C131; ERMOLIEFF, J., LOY, J. A., KOELSCH, G. and TANG, J., Proteolytic activation of recombinant pro-memapsin 2 (pro-BACE) studied with new fluorogenic substrates, Biochemistry, (2000) Vol. 39, p. 12450). […]

molecule: Cn1ccnc1CN(CC(C)(C)C)C(=O)CCC(c1cc2cc(Oc3ccccc3)ccc2nc1N)C1CCOCC1 (stereo not shown)
inhibition at 1 µM, %: 83
--
molecule: CC(C)(C)OCCN(C(=O)CCC(c1cc2cc(Oc3ccccc3)ccc2nc1N)C1CCOCC1)C1CCCCC1 (stereo not shown)
inhibition at 1 µM, %: 86
--
molecule: Nc1nc2ccc(Oc3ccccc3)cc2cc1C(CCC(=O)NCc1nnnn1Cc1ccccc1)C1CCOCC1 (stereo not shown)
inhibition at 1 µM, %: 59
--
molecule: Nc1nc2ccc(Oc3ccccc3)cc2cc1C(CCC(=O)N(CCO)C1CCCCC1)C1CCCCC1 (stereo not shown)
inhibition at 1 µM, %: 58
--
molecule: Nc1nc2ccc(Oc3ccccc3)cc2cc1C(CCC(=O)N(CN1CCCC1)C1CCCCC1)C1CCOCC1 (stereo not shown)
inhibition at 1 µM, %: 83
--
molecule: Nc1nc2ccc(Oc3ccccc3)cc2cc1C(CCC(=O)NC1CN2CCC1CC2)C1CCOCC1 (stereo not shown)
inhibition at 1 µM, %: 56
--
molecule: Nc1nc2ccc(Oc3ccccc3)cc2cc1C(CCC(=O)N(CCN1CCCC1)C1CCCCC1)C1CCCCC1 (stereo not shown)
inhibition at 1 µM, %: 81
